target.entity: T1, human CD4 on the surface of SKW3 cells or human PBMCs (human, UniProt P01730 26-458)
T1 construct: whole, on cells; SKW3 CD4 knockout cells served as the negative cell line; also called hCD4; SKW3 WT
test.method.notes: FACS confirmation, supernatant on human PBMCs, anti-mouse Fc A647, CD4+ gate
parameter: PBMCs, anti-mFc 647 CD4+ gate - RL1 Binding
Write no unit; give the number alone.

INSERT INTO measurements (binder, result) VALUES
  ('75110_11D03A (antibody, V domains shown, Tested here as non-clonal hybridoma supernatant from AlivaMab Mouse Kappa mice (detected with anti-mouse Fc and anti-human kappa)) VH: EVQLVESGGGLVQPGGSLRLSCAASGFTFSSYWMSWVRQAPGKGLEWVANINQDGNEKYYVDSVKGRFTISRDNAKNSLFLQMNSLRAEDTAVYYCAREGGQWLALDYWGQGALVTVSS VL: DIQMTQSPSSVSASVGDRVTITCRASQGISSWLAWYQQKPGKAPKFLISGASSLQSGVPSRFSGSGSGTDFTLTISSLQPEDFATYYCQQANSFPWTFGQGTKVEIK', 190000);

Consider the record given below.
Q: For the binder shown here, 75110_04K10A (antibody, V domains shown, Tested here as non-clonal hybridoma supernatant from AlivaMab Mouse Kappa mice (detected with anti-mouse Fc and anti-human kappa)) VH: EVQLVESGGGLVQPGGSLRLSCAASGFTFSSYWMSWVRQAPGKGLEWVANINQDGSEKYYVDSVKGRFTISRDNAKNSLYLQLNSLRAEDTAMYYCAREGGQWLSLDYWGQGTLVTVSS VL: DIQMTQSPSSVSASVGDRVTITCRASQGISSWLAWYQQKPGKAPKVLIYGVSSFQSGVPSRFSGSGSGTDFILTISSLQPEDFATYYCQQANSFPWTFGQGTKVEIK , give the reported PBMCs, anti-mFc 647 CD4+ gate - RL1 Binding.
Result: 346000
